// data source = ChEMBL document CHEMBL1126594

Assay: Plasma level by the renin inhibition assay from samples taken at 10 minutes from portal circulation by administering 10 mg/kg intraduodenally to the rat
EXPERIMENTAL_ENDPOINT: concentration at 10 min (ng/mL)
Report the figure in ng/mL without appending any unit label.

Guide cases for concentration at 10 min, answers given:
# TEST_SMILES, concentration at 10 min [ng/mL]
rows = [
    ("CC(C)C[C@H](O)[C@H](O)[C@H](CC1CCCCC1)NC(=O)[C@H](Cc1cscn1)NC(=O)[C@H](Cc1ccccc1)N1CCOCC1", 2600),
    ("CC(C)C[C@H](O)[C@H](O)[C@H](CC1CCCCC1)NC(=O)[C@H](Cc1c[nH]cn1)NC(=O)[C@@H](CC(=O)N1CCN(C)CC1)Cc1ccccc1", 67),
]

Please examine the following record next.
stdin: Given the molecule CC(C)C[C@H](O)[C@H](O)[C@H](CC1CCCCC1)NC(=O)[C@H](Cc1cn(C)cn1)NC(=O)[C@@H](CC(=O)N1CCOCC1)Cc1ccccc1 , what is its reported concentration at 10 min?
stdout: 4900
